# Test Details: physchem
# Stated Conditions: octanol/water, pH 6.5
Quantity Name: logD

Compound	logD
CN(C)CCC=C1c2ccccc2CCc2ccccc21	2.14
CC(C)=CCN1CC[C@@]2(C)c3cc(O)ccc3C[C@@H]1[C@@H]2C	1.05

-- ask Item `CCC1(c2ccccc2)C(=O)NC(=O)NC1=O` has what recorded logD?
-- reply 1.43

-- ask What about `O=C1CN=C(c2ccccc2Cl)c2cc([N+](=O)[O-])ccc2N1` ?
-- reply 2.41

-- ask What about `Oc1ccc2c3c1O[C@H]1[C@@H](O)CC[C@@]4(O)[C@@H](C2)N(CC2CCC2)CC[C@]314` ?
-- reply -0.63

====

# Stated Conditions: octanol/water
Param label: returns 1 when delta logD < -0.8, returns 0 otherwise, including exact equality.

-- ask For this compound, is delta logD lower than -0.8? CO/C(O)=C1\C(C)=NC(C)=C(C(=O)OC(C)C)C1c1cccc2nonc12 (stereo not given)
-- reply 0

-- ask What about CC(C(=O)O)c1ccc(-c2ccccc2)c(F)c1 (stereo not given) ?
-- reply 0

-- ask What about CCN(CC)C(=O)N[C@H]1C[C@@H]2c3cccc4[nH]cc(c34)C[C@H]2N(C)C1 [TERGURIDE] ?
-- reply 0

-- ask What about CC(C)(C)NCC(O)COc1cccc2c1CC(O)C(O)C2 (stereo not given) ?
-- reply 1

-- ask What about `CC[C@@H](CO)NCCN[C@@H](CC)CO` ?
-- reply 1

-- ask What about `CN1C(=O)CC(=O)N(c2ccccc2)c2cc(Cl)ccc21` ?
-- reply 0

-- ask What about `Nc1c(CC(=O)O)cccc1C(=O)c1ccc(Br)cc1` ?
-- reply 0

====

In this section, each of the compounds is paired with its reported bioavailability.
# Test Details: clinical
# Stated Conditions: human, in vivo, po

The examples below pair each entry with its known result.
Compound	Reported Value
CCC1(C)CC(=O)NC1=O (stereo not given) [ETHOSUXIMIDE]	> 80%
CC(C)(C)NCC(O)c1cc(Cl)c(N)c(C(F)(F)F)c1 (stereo not given)	≥ 80%
CCC1(CCC(C)C)C(=O)NC(=O)NC1=O	≥ 80%
CNC1=Nc2ccc(Cl)cc2C(c2ccccc2)=[N+]([O-])C1 [CHLORDIAZEPOXIDE]	> 80%

For the next question, use this compound.
-- ask Item CCNC(C)Cc1cccc(C(F)(F)F)c1 (stereo not given) has what recorded bioavailability?
-- reply 79%

====

In this section, each of the compounds is paired with its reported delta logD.
# Stated Conditions: octanol/water
Keep the answer to the number alone.

Compound	Quantity Name	Reported Value
O=C1CN=C(c2ccccc2)c2cc([N+](=O)[O-])ccc2N1 [NITRAZEPAM]	delta logD	0
CN(C/C=C/C#CC(C)(C)C)Cc1cccc2ccccc12 [TERBINAFINE]	delta logD	-0.86
C[C@@H]1C[C@H]2[C@@H]3CCC4=CC(=O)C=C[C@]4(C)[C@@]3(F)[C@@H](O)C[C@]2(C)[C@@]1(O)C(=O)CO [DEXAMETHASONE]	delta logD	0

-- ask Item `CNCCC[C@]12CC[C@H](c3ccccc31)c1ccccc12` has what recorded delta logD?
-- reply -0.9

-- ask What about COC(=O)C1=C(C)NC(C)=C(C(=O)OCCN(C)Cc2ccccc2)C1c1cccc([N+](=O)[O-])c1 (stereo not drawn) [NICARDIPINE] ?
-- reply -0.72

-- ask What about CC(C)(C)NCC(O)c1cc(O)cc(O)c1 (stereo not drawn) [TERBUTALINE] ?
-- reply -0.89

-- ask What about CC(=O)Oc1ccccc1C(=O)O [ASPIRIN] ?
-- reply 0.9

-- ask What about C[C@H]1C[C@H]2[C@@H]3CCC4=CC(=O)C=C[C@]4(C)[C@@]3(F)[C@@H](O)C[C@]2(C)[C@@]1(O)C(=O)CO [BETAMETHASONE] ?
-- reply 0
